Assay: AUC (0 to infinity) in male Sprague-Dawley rat at 2.5 mg/kg, ip measured after 5 to 1440 mins by LC-MS/MS analysis
Assay type: ADME, organism-based
Details: in vivo, time 5-1440 min
Measurement Label: AUC(0-inf) (ng·h/mL)
Write the answer as a number in ng·h/mL, unit excluded.

Task: Give its AUC(0-inf) value. Item: CCn1c2ccccc2c2cc(Nc3ccnc(Nc4ccc(C)c(OC)c4)n3)ccc21
Output: 3300

###

Test: Drug concentration in male mouse brain at 10 mg/kg, ip measured after 1 hrs by LC-MS/MS analysis
Type: ADME, organism-based
Conditions: read-out: Ct
Measurement Label: concentration at 1 h (µg/mL)
Write the answer as a number in µg/mL, unit excluded.

Task: Give its concentration at 1 h value. Item: CCn1c2ccccc2c2cc(Nc3ccnc(Nc4ccc(C)c(OC)c4)n3)ccc21
Output: 0.015

###

Assay: Apparent volume of distribution in male Sprague-Dawley rat at 0.5 mg/kg, iv measured after 2 to 720 mins by LC-MS/MS analysis
Format: ADME, organism-based
Conditions: in vivo, time 2-720 min, read-out: Vd(app)
Measurement Label: Vd (L/kg)
Write the answer as a number in L/kg, unit excluded.

Task: Give its Vd value. Item: CCn1c2ccccc2c2cc(Nc3ccnc(Nc4ccc(C)c(OC)c4)n3)ccc21
Output: 2.9

###

Experiment: Cmax in male Sprague-Dawley rat at 0.5 mg/kg, iv measured after 2 to 720 mins by LC-MS/MS analysis
Assay type: ADME, organism-based
Conditions: in vivo, time 2-720 min
Measurement Label: Cmax (ng/mL)
Write the answer as a number in ng/mL, unit excluded.

Task: Give its Cmax value. Item: CCn1c2ccccc2c2cc(Nc3ccnc(Nc4ccc(C)c(OC)c4)n3)ccc21
Output: 893

###

Test: Bioavailability in male Sprague-Dawley rat at 2.5 mg/kg, ip measured after 5 to 1440 mins by LC-MS/MS analysis
Format: ADME, organism-based
Settings: in vivo, time 5-1440 min
Measurement Label: bioavailability (%)
Write the answer as a number in %, unit excluded.

Task: Give its bioavailability value. Item: CCn1c2ccccc2c2cc(Nc3ccnc(Nc4ccc(C)c(OC)c4)n3)ccc21
Output: 74.5

###

Assay: Drug concentration in male mouse brain at 10 mg/kg, ip measured after 4 hrs by LC-MS/MS analysis
Type: ADME, organism-based
Conditions: read-out: Ct
Measurement Label: concentration at 4 h (ng/mL)
Write the answer as a number in ng/mL, unit excluded.

Task: Give its concentration at 4 h value. Item: CCn1c2ccccc2c2cc(Nc3ccnc(Nc4ccc(C)c(OC)c4)n3)ccc21
Output: 20.2

###

Tested on: Mus musculus
Assay: Sedative-hypnotic activity in mouse assessed as reduction in grip strength score at 50 mg/kg, ip administrated as single dose and measured after 30 mins by grip strength test
Format: functional, organism-based
Active and inactive are the calls of the source. The calls are words filed in the database; no cut-off is given here.
Measurement Label: Activity

Worked set:
Task: Item: CCn1c2ccccc2c2cc(Nc3ccnc(Nc4ccc(F)c(C)c4)n3)ccc21 Test system: Mus musculus Read-out: Activity Value: ?
Output: Active

Task: Item: CCn1c2ccccc2c2cc(Nc3ccnc(Nc4cc(C)cc(F)c4)n3)ccc21 Test system: Mus musculus Read-out: Activity Value: ?
Output: Active

Task: Item: CCn1c2ccccc2c2cc(Nc3ccnc(Nc4ccc(C)c(OC)c4)n3)ccc21 Test system: Mus musculus Read-out: Activity Value: ?
Output: Active

Task: Item: CCn1c2ccccc2c2cc(Nc3ccnc(Nc4ccc5c(c4)c4ccccc4n5CC)n3)ccc21 Test system: Mus musculus Read-out: Activity Value: ?
Output: Active

Task: Item: Cc1cc2c(F)c(Nc3nccc(Nc4ccc5sc(C)nc5c4)n3)ccc2[nH]1 Test system: Mus musculus Read-out: Activity Value: ?
Output: Active

Task: Item: CCn1c2ccccc2c2cc(Nc3ccnc(Nc4ccc5nc(C)[nH]c5c4)n3)ccc21 Test system: Mus musculus Read-out: Activity Value: ?
Output: Active

Task: Item: CCn1c2ccccc2c2cc(Nc3ccnc(Nc4ccc(C(C)C)cc4)n3)ccc21 Test system: Mus musculus Read-out: Activity Value: ?
Output: Active

Task: Item: CCn1c2ccccc2c2cc(Nc3ccnc(Nc4ccc5c(cnn5C)c4)n3)ccc21 Test system: Mus musculus Read-out: Activity Value: ?
Output: Active

New cases:
Task: Item: CCn1c2ccccc2c2cc(Nc3ccnc(Nc4cc(OC)cc(OC)c4)n3)ccc21 Test system: Mus musculus Read-out: Activity Value: ?
Output: Active

Task: Item: Cc1nc2ccc(Nc3nccc(Nc4ccc5sc(C)nc5c4)n3)cc2[nH]1 Test system: Mus musculus Read-out: Activity Value: ?
Output: Active
